Can you tell me relative cleavage efficiency for the items I'm about to list?
target: fusion protein PRC
Sequence (chain, as listed by the source): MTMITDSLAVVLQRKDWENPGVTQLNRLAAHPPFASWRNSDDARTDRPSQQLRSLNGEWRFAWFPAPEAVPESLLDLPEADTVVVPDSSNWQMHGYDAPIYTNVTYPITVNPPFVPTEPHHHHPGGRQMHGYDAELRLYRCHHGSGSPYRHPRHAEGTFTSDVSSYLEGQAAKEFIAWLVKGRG
Report only the number, with the unit % understood.

query: Please look up its relative cleavage efficiency: OmpT protease variant OmpT D97T (protein) STETLSFTPDNINADISLGTLSGKTKERVYLAEEGGRKVSQLDWKFNNAAIIKGAINWDLMPQISIGAAGWTTLGSRGGNMVDQDWMDSSNPGTWTTESRHPDTQLNYANEFDLNIKGWLLNEPNYRLGLMAGYQESRYSFTARGGSYIYSSEEGFRDDIGSFPNGERAIGYKQRFKMPYIGLTGSYRYEDFELGGTFKYSGWVESSDNDEHYDPGKRITYRSKVKDQNYYSVAVNAGYYVTPNAKVYVEGAWNRVTNKKGNTSLYDHNNNTSDYSKNGAGIENYNFITTAGLKYTF
result: 4.6

query: Another protein to check: OmpT protease variant OmpT D97Q (protein) STETLSFTPDNINADISLGTLSGKTKERVYLAEEGGRKVSQLDWKFNNAAIIKGAINWDLMPQISIGAAGWTTLGSRGGNMVDQDWMDSSNPGTWTQESRHPDTQLNYANEFDLNIKGWLLNEPNYRLGLMAGYQESRYSFTARGGSYIYSSEEGFRDDIGSFPNGERAIGYKQRFKMPYIGLTGSYRYEDFELGGTFKYSGWVESSDNDEHYDPGKRITYRSKVKDQNYYSVAVNAGYYVTPNAKVYVEGAWNRVTNKKGNTSLYDHNNNTSDYSKNGAGIENYNFITTAGLKYTF
result: 4.1

query: Another protein to check: OmpT protease variant OmpT D97E (protein) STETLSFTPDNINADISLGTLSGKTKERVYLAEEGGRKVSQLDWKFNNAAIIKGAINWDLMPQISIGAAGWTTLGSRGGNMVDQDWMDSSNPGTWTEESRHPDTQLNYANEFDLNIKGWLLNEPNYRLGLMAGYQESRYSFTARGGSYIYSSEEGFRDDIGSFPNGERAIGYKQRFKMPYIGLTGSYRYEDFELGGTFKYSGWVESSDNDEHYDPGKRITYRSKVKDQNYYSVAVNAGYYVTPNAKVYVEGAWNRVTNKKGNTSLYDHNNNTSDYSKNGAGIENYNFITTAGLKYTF
result: 6.9

query: Another protein to check: OmpT protease variant OmpT D97H (protein) STETLSFTPDNINADISLGTLSGKTKERVYLAEEGGRKVSQLDWKFNNAAIIKGAINWDLMPQISIGAAGWTTLGSRGGNMVDQDWMDSSNPGTWTHESRHPDTQLNYANEFDLNIKGWLLNEPNYRLGLMAGYQESRYSFTARGGSYIYSSEEGFRDDIGSFPNGERAIGYKQRFKMPYIGLTGSYRYEDFELGGTFKYSGWVESSDNDEHYDPGKRITYRSKVKDQNYYSVAVNAGYYVTPNAKVYVEGAWNRVTNKKGNTSLYDHNNNTSDYSKNGAGIENYNFITTAGLKYTF
result: 11
